// provenance: PubChem BioAssay (NCI)

system: T-47D breast; test: NCI-60 one-dose screen, 48 h (100 = growth as untreated, 0 = no growth, -100 = all killed); settings: 10 µM unless noted
Compounds without any hit were thinned out: in the full panel of roughly 83,000, 20% have a hit.
Consider the cut-off 60%. If the recorded growth is strictly smaller, the label is T; if not, the label is F.

QUERY: Could you please tell me whether growth recorded for COc1ccncc1C#Cc1cncc(C(=O)Nc2ccc(CN3CCN(C)CC3)c(C(F)(F)F)c2)c1 is less than 60%?
RESULT: T

QUERY: Could you please tell me whether growth recorded for Cn1c(COC(=O)NCCN2CCOCC2)nc2c(N3CCOCC3)nc(-c3ccccc3)nc21 is less than 60%?
RESULT: T

QUERY: Could you please tell me whether growth recorded for CCCCCCCCCCCCCCCC(=O)OC[C@@]1(O)C[C@@]23CC[C@@H]4C(C)(C)CCC[C@@]4(C)[C@@H]2CC[C@H]1C3 is less than 60%?
RESULT: F

QUERY: Could you please tell me whether growth recorded for COc1ccc(-c2c(-c3ccccc3)noc2N)cc1OC is less than 60%?
RESULT: F

QUERY: Could you please tell me whether growth recorded for O=C(N/N=C/c1cccc(O)c1)c1ccccc1Nc1cccc(C(F)(F)F)c1 is less than 60%?
RESULT: T

QUERY: Could you please tell me whether growth recorded for CC(=O)c1cc2c(N)c(C(=O)Nc3cncc4ccccc34)sc2nc1C is less than 60%?
RESULT: F

QUERY: Could you please tell me whether growth recorded for C=C1C(=O)O[C@H]2[C@H]1CC/C(COC(=O)NCCc1c[nH]c3ccc(Cl)cc13)=C\CC[C@@]1(C)O[C@@H]21 is less than 60%?
RESULT: T

QUERY: Could you please tell me whether growth recorded for O=C1c2ccccc2C(=O)c2c(NCCN=Cc3ccccc3O)cccc21 is less than 60%?
RESULT: F

----------
test system: KM12 colon; assay: NCI-60 one-dose screen, 48 h (100 = growth as untreated, 0 = no growth, -100 = all killed); settings: 10 µM unless noted
About 83,000 compounds went through this panel and 20% of them were active in at least one assay; those are over-represented in the sample as a whole.
I'd appreciate it if you could supply growth values for the items below.
Field format: number, assumed %, no unit text.

Let me check: CCCCc1ccc(Nc2nnc(SCC(=O)NC(=O)NCC)s2)cc1 , system KM12 colon, measured growth is 102

Let me check: c1ccc(-c2nnc(Nc3ccc4c(c3)OCCO4)o2)c(NCc2ccncc2)c1 , system KM12 colon, measured growth is -38.3

Let me check: COc1ccc(/C=N/C2=C(C#N)C(c3ccccc3[N+](=O)[O-])c3ccc4ccccc4c3O2)cc1 (configuration not stated) , system KM12 colon, measured growth is 95.9

Let me check: CCc1c(Nc2ccc(C)cc2)[nH]c(N)nc1=S , system KM12 colon, measured growth is 104

Let me check: CCCCCCCCOC(=O)c1ccc(O)c(OC)c1 , system KM12 colon, measured growth is 102

Let me check: CCCCCCCCCCCCCCCCCCOc1ccccc1N , system KM12 colon, measured growth is 39.8

Let me check: COc1ccc(C(O)c2cc3c(N)c(C(=O)Nc4ccccc4)sc3nc2C)cc1 (configuration not stated) , system KM12 colon, measured growth is 3.05

Let me check: COc1cc(C2CC(c3cccc(Nc4ccncc4)c3)=NN2c2ccc(Cl)cc2)cc(OC)c1OC (configuration not stated) , system KM12 colon, measured growth is -74.5

Let me check: CC(C)(C)CC(C)(C)Nc1c(-c2ccc(C(F)(F)F)cc2)nc2cnccn12 , system KM12 colon, measured growth is 83.8

Let me check: Cc1cc(Nc2cccc(C(F)(F)F)c2)n2c(nc3ccccc32)c1C#N , system KM12 colon, measured growth is 20.9

Let me check: COc1cc(CNC(=O)CCCCC[P+](c2ccccc2)(c2ccccc2)c2ccccc2)c(OC)c2c1OCO2 , system KM12 colon, measured growth is 45.6

Let me check: COc1ccc(-c2nc(SCCC(C)C)nc(N/N=C(/C)c3ccc(C)cc3)c2C#N)cc1 , system KM12 colon, measured growth is 93.5

Let me check: COc1ccc(Cn2nc(-c3ccccc3)c3c2CCc2cnoc2-3)cc1 , system KM12 colon, measured growth is 56.8

Let me check: CC(C)NC(=O)N1C(=O)CCC1NNC(=O)c1ccc([N+](=O)[O-])cc1 (configuration not stated) , system KM12 colon, measured growth is 102

Let me check: COc1cc2oc(-c3cccc(C(=O)Nc4ccc(Cl)cc4)c3)cc(=O)c2c(OC)c1OC , system KM12 colon, measured growth is 26.3

Let me check: COc1ccc(Nc2nc(N)nc3c2CCc2occc2-3)cc1 , system KM12 colon, measured growth is 95.9

Let me check: c1ccc(Cn2nc3c(c2-c2ccccc2)-c2oncc2CC3)cc1 , system KM12 colon, measured growth is 99.6

Let me check: NC(=O)c1cccc(-c2cc(C(N)=O)ccc2Cl)c1 , system KM12 colon, measured growth is 30.8

Let me check: CC(Oc1ccc(C(=O)NS(=O)(=O)C(C)(C)C)cc1C(F)(F)F)c1ccc(Oc2ccccc2)cn1 (configuration not stated) , system KM12 colon, measured growth is 52.7

Let me check: Cc1[nH]n(C(=O)c2ccncc2)c(=O)c1N=Nc1ccc(F)c(Cl)c1 , system KM12 colon, measured growth is 105

Let me check: CCCCOc1ccc(/C=N/Nc2cc(C)nc3ccc(Cl)cc23)cc1 , system KM12 colon, measured growth is -76.6

Let me check: Cn1c(COC(=O)NCCn2ccnc2)nc2c(N3CCOCC3)nc(-c3ccccc3)nc21 , system KM12 colon, measured growth is -69.3
